Listed here are molecules together with their documented pKi.
Target: UniProt P21917
Sequence (P21917 whole entry): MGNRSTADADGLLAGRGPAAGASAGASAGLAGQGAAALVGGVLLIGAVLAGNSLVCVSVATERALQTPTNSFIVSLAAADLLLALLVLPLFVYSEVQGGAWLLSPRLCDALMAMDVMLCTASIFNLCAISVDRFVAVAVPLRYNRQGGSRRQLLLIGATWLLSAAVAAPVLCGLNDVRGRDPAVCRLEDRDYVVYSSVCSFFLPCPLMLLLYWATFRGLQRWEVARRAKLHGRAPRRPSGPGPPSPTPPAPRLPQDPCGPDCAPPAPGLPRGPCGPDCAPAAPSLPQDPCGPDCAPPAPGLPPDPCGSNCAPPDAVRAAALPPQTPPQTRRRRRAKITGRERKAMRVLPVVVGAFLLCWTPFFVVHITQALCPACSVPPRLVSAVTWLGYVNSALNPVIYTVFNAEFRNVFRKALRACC
Assay: Displacement of [3H]N-methylspiperone from human D4.4 receptor stably expressed in HEK293T cells co-expressing ElucN-betaarr2 hD4.4R-ELuc incubated for 60 mins by scintillation counting analysis
Format: cell-based

[
  {
    "compound structure string": "CCCCCNC(=O)/N=C(\\N)NCCCc1nnc(N)s1.O=C(O)C(F)(F)F.O=C(O)C(F)(F)F",
    "pKi": 5.65
  },
  {
    "compound structure string": "N/C(=N\\C(=O)NCc1ccccc1)NCCCc1nnc(N)s1",
    "pKi": 6.17
  },
  {
    "compound structure string": "C[C@@H](NC(=O)/N=C(\\N)NCCCc1ncn[nH]1)c1ccccc1",
    "pKi": 5.18
  },
  {
    "compound structure string": "CCCCCNC(=O)/N=C(\\N)NCCCc1sc(N)nc1C",
    "pKi": 6.96
  }
]

* * *

Biological target: D(2) dopamine receptor (Homo sapiens, UniProt P14416);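 note: agonist mode, β-arrestin2 recruitment to the human D2 long isoform stably expressed in HEK293T cells, read by split luciferase complementation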
Sequence (P14416 whole entry, canonical isoform): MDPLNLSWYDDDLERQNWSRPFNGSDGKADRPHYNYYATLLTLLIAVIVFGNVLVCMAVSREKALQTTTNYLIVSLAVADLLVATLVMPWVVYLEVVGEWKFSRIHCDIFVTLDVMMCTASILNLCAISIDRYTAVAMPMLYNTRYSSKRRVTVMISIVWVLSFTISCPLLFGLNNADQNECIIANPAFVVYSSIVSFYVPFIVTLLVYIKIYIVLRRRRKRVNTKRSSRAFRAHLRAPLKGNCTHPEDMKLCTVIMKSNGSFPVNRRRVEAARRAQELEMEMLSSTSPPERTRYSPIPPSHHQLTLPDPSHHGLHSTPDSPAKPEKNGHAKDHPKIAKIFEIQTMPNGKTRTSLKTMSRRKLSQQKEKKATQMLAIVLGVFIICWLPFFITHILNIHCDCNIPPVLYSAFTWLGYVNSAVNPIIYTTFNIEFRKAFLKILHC
Type: functional, cell-based, HEK293T
pEC50: −log10 of the molar value.
endpoint: pEC50

[
  {
    "compound": "N/C(=N\\C(=O)NCc1ccccc1)NCCCc1cnc(N)s1",
    "result": 5.47
  },
  {
    "compound": "CCCCCCNC(=O)/N=C(\\N)NCCCc1nnc(N)s1",
    "result": "< 5.00"
  },
  {
    "compound": "Cc1ccc(CC(C)CNC(=O)/N=C(\\N)NCCCc2cnc(N)s2)cc1 (stereo not given)",
    "result": 5.35
  },
  {
    "compound": "N/C(=N\\C(=O)NCc1ccccc1)NCCCc1nnc(N)s1",
    "result": "< 5.00"
  },
  {
    "compound": "C[C@@H](NC(=O)/N=C(\\N)NCCCc1ncn[nH]1)c1ccccc1",
    "result": "< 5.00"
  },
  {
    "compound": "CC(NC(=O)/N=C(\\N)NCCCc1nnc(N)s1)c1cccc(F)c1 (stereo not given)",
    "result": "< 5.00"
  },
  {
    "compound": "N/C(=N\\C(=O)NCCCCCCNC(=O)/N=C(\\N)NCCCc1nnc(N)s1)NCCCc1nnc(N)s1",
    "result": 5.95
  },
  {
    "compound": "CCCCCNC(=O)/N=C(\\N)NCCCc1nnc(N)s1.O=C(O)C(F)(F)F.O=C(O)C(F)(F)F",
    "result": "< 5.00"
  },
  {
    "compound": "CC(CNC(=O)/N=C(\\N)NCCCc1nnc(N)s1)C1CCCCC1 (stereo not given)",
    "result": "< 5.00"
  },
  {
    "compound": "C[C@@H](NC(=O)/N=C(\\N)NCCCc1nnc(N)s1)c1ccccc1",
    "result": "< 5.00"
  }
]
